Assayed target: P-gp (MDR1) (Homo sapiens (Human))
Sequence (P08183 whole entry, species assumed): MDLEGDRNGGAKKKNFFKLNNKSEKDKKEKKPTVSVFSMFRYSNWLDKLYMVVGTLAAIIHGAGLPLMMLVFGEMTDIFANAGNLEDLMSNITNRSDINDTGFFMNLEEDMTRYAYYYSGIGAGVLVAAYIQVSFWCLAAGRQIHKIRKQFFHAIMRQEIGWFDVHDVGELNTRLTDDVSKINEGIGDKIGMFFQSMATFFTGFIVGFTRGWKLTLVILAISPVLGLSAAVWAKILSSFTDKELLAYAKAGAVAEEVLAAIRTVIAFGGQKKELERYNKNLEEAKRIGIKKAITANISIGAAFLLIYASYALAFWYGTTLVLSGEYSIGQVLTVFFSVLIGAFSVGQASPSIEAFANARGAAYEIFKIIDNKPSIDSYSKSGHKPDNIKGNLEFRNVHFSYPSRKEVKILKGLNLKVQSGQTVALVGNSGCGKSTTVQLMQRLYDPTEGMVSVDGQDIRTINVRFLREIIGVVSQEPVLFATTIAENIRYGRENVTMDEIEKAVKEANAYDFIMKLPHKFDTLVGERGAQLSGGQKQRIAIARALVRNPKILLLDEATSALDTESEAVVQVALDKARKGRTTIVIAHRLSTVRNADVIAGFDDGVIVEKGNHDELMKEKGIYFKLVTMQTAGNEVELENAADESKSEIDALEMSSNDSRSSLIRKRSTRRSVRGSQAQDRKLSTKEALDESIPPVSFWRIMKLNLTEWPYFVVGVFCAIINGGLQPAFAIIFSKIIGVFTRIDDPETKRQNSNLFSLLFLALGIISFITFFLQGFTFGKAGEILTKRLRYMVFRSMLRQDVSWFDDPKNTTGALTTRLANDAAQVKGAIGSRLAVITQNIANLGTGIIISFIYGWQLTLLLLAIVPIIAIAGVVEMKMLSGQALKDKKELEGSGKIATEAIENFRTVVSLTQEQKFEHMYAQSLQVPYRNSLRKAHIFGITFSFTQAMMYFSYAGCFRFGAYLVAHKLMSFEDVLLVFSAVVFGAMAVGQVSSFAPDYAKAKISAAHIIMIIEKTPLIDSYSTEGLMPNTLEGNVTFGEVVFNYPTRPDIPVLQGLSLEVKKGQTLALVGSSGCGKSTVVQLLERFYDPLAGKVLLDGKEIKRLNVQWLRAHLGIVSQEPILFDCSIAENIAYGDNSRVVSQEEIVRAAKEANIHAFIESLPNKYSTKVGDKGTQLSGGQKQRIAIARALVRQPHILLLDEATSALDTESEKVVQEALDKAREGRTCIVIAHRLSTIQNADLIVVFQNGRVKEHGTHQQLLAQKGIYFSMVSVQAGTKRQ
Test protocol: MDR1 LLC-PK1 permeability assay: efflux ratio
Test settings: pig, LLC-PK1
Kindly supply the reported efflux ratio at 2 h, 1 µM values for the records listed here.
Answers are plain numbers.

Consider the following illustrative entries.
> print(dat)
                  compound.structure.string  assay.result
1  Cc1c(Nc2cc(F)cc(NS(=O)(=O)CCCF)c2Cl)ccc2ncn(C)c(=O)c12          1.05
2  CCCS(=O)(=O)Nc1nccc(Oc2ccc3ncn(C)c(=O)c3c2C)c1Cl          0.91

query: May I ask what efflux ratio at 2 h, 1 µM has been recorded for Cc1c(Nc2c(F)ccc(NS(=O)(=O)c3ccccn3)c2Cl)ccc2ncn(C)c(=O)c12 ?
result: 2.04
